molecular target: Recombinant human cathepsin A (Homo sapiens (Human)); assay: Cathepsin A inhibitory activity (Bodipy FL-labeled bradykinin substrate, microfluidic capillary electrophoresis); assay type: biochemical; conditions: read-out: CATHA IC50
Entries and their measured pIC50 follow.
For clarity, pIC50 is expressed as the negative log10 of concentration in mol/L.

// query What does the record list as pIC50 for COc1ccc(-c2cccc(C)c2C)cc1C(CC(=O)O)c1ncc(C)s1 (centres unmarked) ?
// result 5.64

// query What does the record list as pIC50 for Cc1cnc(C(CC(=O)O)c2cc(Cl)cc(-c3ccccc3C(N)=O)c2)s1 (centres unmarked) ?
// result 6.39

// query What does the record list as pIC50 for Cc1cnc(C(CC(=O)O)c2cc(Cl)cc(-c3cc(F)ccc3F)c2)s1 (centres unmarked) ?
// result 6.87

// query What does the record list as pIC50 for CCCOc1ccc(F)c(-c2cccc(C(CC(=O)O)c3nccs3)c2)c1 (centres unmarked) ?
// result 5.95

Now turn to the next compound.
// query What does the record list as pIC50 for COc1ccc(-c2ccc(C)cc2C)cc1C(CC(=O)O)c1ncc(C)s1 (centres unmarked) ?
// result 5.51

====

molecular target: Recombinant human cathepsin A (Homo sapiens (Human)); assay: Cathepsin A inhibitory activity (Bodipy FL-labeled bradykinin substrate, microfluidic capillary electrophoresis); assay type: biochemical; details: read-out: CATHA IC50
Entries and their measured IC50 follow.

// query What does the record list as IC50 for COc1ccc(-c2cccc(C)c2)cc1C(CC(=O)O)c1ncc(C)s1 (centres unmarked) ?
// result 7.12 µM

// query What does the record list as IC50 for COc1ccc(-c2ccc(C)cc2)cc1C(CC(=O)O)c1ncc(C)s1 (centres unmarked) ?
// result 1.59 µM

// query What does the record list as IC50 for Cn1nccc1-c1cccc(C(CC(=O)O)c2nccs2)c1 (centres unmarked) ?
// result 15.1 µM

// query What does the record list as IC50 for O=C(O)CC(c1cccc(-c2cccnc2)c1)c1nccs1 (centres unmarked) ?
// result 21.2 µM

// query What does the record list as IC50 for Cc1nc(C(CC(=O)O)c2cccc(Br)c2)sc1C (centres unmarked) ?
// result 7.78 µM

====

molecular target: Recombinant human cathepsin A (Homo sapiens (Human), UniProt P10619); test: Cathepsin A inhibitory activity (Bodipy FL-labeled bradykinin substrate, microfluidic capillary electrophoresis); type: biochemical; conditions: read-out: CATHA IC50
Sequence (P10619 29-326): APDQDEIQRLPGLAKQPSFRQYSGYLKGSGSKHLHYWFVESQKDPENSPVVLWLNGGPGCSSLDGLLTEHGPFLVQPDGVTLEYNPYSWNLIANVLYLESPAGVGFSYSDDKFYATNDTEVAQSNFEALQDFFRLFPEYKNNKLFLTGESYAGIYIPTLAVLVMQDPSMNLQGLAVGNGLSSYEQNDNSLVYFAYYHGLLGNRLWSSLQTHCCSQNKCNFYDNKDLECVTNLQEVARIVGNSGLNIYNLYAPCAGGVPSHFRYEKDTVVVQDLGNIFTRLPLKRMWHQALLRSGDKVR
Sequence (P10619 327-480): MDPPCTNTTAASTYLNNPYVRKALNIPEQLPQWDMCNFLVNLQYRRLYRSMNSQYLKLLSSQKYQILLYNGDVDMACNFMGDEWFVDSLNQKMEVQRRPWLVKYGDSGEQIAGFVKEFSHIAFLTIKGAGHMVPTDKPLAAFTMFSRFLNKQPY
Assay endpoint: log10 IC50 (log10 of the value in nM)
On a log10 scale: recorded IC50, unit nM.

// known answers, use as guide
// query What does the record list as log10 IC50 for Cc1cnc(C(CC(=O)O)c2cc(Cl)cc(-c3cccc(Cl)c3F)c2)s1 (stereo not drawn) ?
// result 2.29

// query What does the record list as log10 IC50 for COc1ccc(-c2ccc(C#N)cc2)cc1C(CC(=O)O)c1ncc(C)s1 (stereo not drawn) ?
// result 3.94

// query What does the record list as log10 IC50 for CC(C)COc1cc(F)cc(-c2cccc(C(CC(=O)O)c3nccs3)c2)c1 (stereo not drawn) ?
// result 3.36

// query What does the record list as log10 IC50 for CC(=O)c1ccccc1-c1cc(Cl)cc(C(CC(=O)O)c2ncc(C)s2)c1 (stereo not drawn) ?
// result 2.40

// query What does the record list as log10 IC50 for Cc1cnc(C(CC(=O)O)c2cc(Cl)cc(-c3cccc(C)c3F)c2)s1 (stereo not drawn) ?
// result 2.26

// query What does the record list as log10 IC50 for Cc1cnc(C(CC(=O)O)c2cc(Cl)cc(-c3cccc(F)c3F)c2)s1 (stereo not drawn) ?
// result 2.55

// query What does the record list as log10 IC50 for COc1ccc(-c2ccc(Cl)cc2F)cc1C(CC(=O)O)c1ncc(C)s1 (stereo not drawn) ?
// result 3.55

// query What does the record list as log10 IC50 for Cc1ccccc1-c1cccc(C(CC(=O)O)c2nccs2)c1 (stereo not drawn) ?
// result 3.55

// query What does the record list as log10 IC50 for COc1ccc(-c2ccc(OC(F)(F)F)cc2)cc1C(CC(=O)O)c1ncc(C)s1 (stereo not drawn) ?
// result 3.83

// query What does the record list as log10 IC50 for Cc1cnc(C(CC(=O)O)c2cc(Cl)cc(-c3ccccc3C#N)c2)s1 (stereo not drawn) ?
// result 2.75

More entries:
// query What does the record list as log10 IC50 for COc1ccc(-c2cc(F)ccc2F)cc1C(CC(=O)O)c1ncc(C)s1 (stereo not drawn) ?
// result 2.99

// query What does the record list as log10 IC50 for CCOc1cccc(-c2cccc(C(CC(=O)O)c3nccs3)c2)c1 (stereo not drawn) ?
// result 3.18

// query What does the record list as log10 IC50 for Cn1nc(-c2cccc(C(CC(=O)O)c3nccs3)c2)c2ccccc21 (stereo not drawn) ?
// result 2.89

// query What does the record list as log10 IC50 for Cc1cnc(C(CC(=O)O)c2cc(Cl)cc(-c3ccccc3F)c2)s1 (stereo not drawn) ?
// result 2.52

// query What does the record list as log10 IC50 for COc1ccc(-c2ccc(Cl)cc2)cc1C(CC(=O)O)c1ncc(C)s1 (stereo not drawn) ?
// result 3.51

====

target: Recombinant human cathepsin A (Homo sapiens (Human)); assay: Cathepsin A inhibitory activity (Bodipy FL-labeled bradykinin substrate, microfluidic capillary electrophoresis); format: biochemical; settings: Cathepsin A inhibitory activity, read-out: CATHA IC50
Entries and their measured pIC50 follow.
For clarity, pIC50 is expressed as the negative log10 of concentration in mol/L.

// known answers, use as guide
// query What does the record list as pIC50 for Cc1cnc(C(CC(=O)O)c2cc(F)cc(-c3cccnc3)c2)s1 (centres unmarked) [compound 128] ?
// result 5.88

// query What does the record list as pIC50 for CC(=O)c1ccccc1-c1cc(F)cc(C(CC(=O)O)c2ncco2)c1 (centres unmarked) [compound 136] ?
// result 5.69

// query What does the record list as pIC50 for O=C(O)CC(c1cc(F)cc(-c2cccc(F)c2F)c1)c1ncco1 (centres unmarked) [compound 129] ?
// result 5.84

// query What does the record list as pIC50 for Cc1nnc(C(CC(=O)O)c2cccc(-c3cccnc3)c2)o1 (centres unmarked) [compound 147] ?
// result 5.17

// query What does the record list as pIC50 for Cc1ccc(F)c(-c2cc(F)cc(C(CC(=O)O)c3ncc(C)s3)c2)c1 (centres unmarked) [compound 118] ?
// result 6.36

More entries:
// query What does the record list as pIC50 for Cc1cccc(-c2cc(F)cc(C(CC(=O)O)c3ncco3)c2)c1F (centres unmarked) [compound 119] ?
// result 6.31

// query What does the record list as pIC50 for N#Cc1ccccc1-c1cc(F)cc(C(CC(=O)O)c2ncco2)c1 (centres unmarked) [compound 137] ?
// result 5.69

====

Entries and their measured IC50 follow.
target: Recombinant human cathepsin A (Homo sapiens (Human), UniProt P10619); test: Cathepsin A inhibitory activity (Bodipy FL-labeled bradykinin substrate, microfluidic capillary electrophoresis); format: biochemical; conditions: read-out: CATHA IC50
Field format: number, assumed µM, no unit text.

// query What does the record list as IC50 for O=C(O)CC(c1cccc(-c2ccncc2F)c1)c1nccs1 (stereo not drawn) ?
// result 24.8

// query What does the record list as IC50 for Cc1cnc(C(CC(=O)O)c2cc(Cl)cc(-c3cccc(OC(F)(F)F)c3)c2)s1 (stereo not drawn) ?
// result 0.406

// query What does the record list as IC50 for COc1ccc(-c2cc(C)ccc2F)cc1C(CC(=O)O)c1ncc(C)s1 (stereo not drawn) ?
// result 5.68

====

target: Recombinant human cathepsin A (Homo sapiens (Human)); assay: Cathepsin A inhibitory activity (Bodipy FL-labeled bradykinin substrate, microfluidic capillary electrophoresis); assay type: biochemical; conditions: Cathepsin A inhibitory activity, read-out: CATHA IC50
Entries and their measured pIC50 follow.
For clarity, pIC50 is expressed as the negative log10 of concentration in mol/L.

// query API: value(readout= pIC50, system= Recombinant human cathepsin A (Homo sapiens (Human)), query= Cc1cnc(C(CC(=O)O)c2cc(Cl)cc(-c3ccncc3F)c2)s1 (stereo not drawn) )
// result 5.81

// query API: value(readout= pIC50, system= Recombinant human cathepsin A (Homo sapiens (Human)), query= Cc1cnc(C(CC(=O)O)c2cc(F)cc(-c3ccccc3F)c2)s1 (stereo not drawn) )
// result 6.11

// query API: value(readout= pIC50, system= Recombinant human cathepsin A (Homo sapiens (Human)), query= Cc1cnc(C(CC(=O)O)c2cc(F)cc(-c3ccccc3C#N)c2)s1 (stereo not drawn) )
// result 5.77

// query API: value(readout= pIC50, system= Recombinant human cathepsin A (Homo sapiens (Human)), query= Cc1ccc(F)c(-c2cc(F)cc(C(CC(=O)O)c3ncco3)c2)c1 (stereo not drawn) )
// result 6.04

// query API: value(readout= pIC50, system= Recombinant human cathepsin A (Homo sapiens (Human)), query= O=C(O)CC(c1cc(F)cc(-c2cc(F)ccc2F)c1)c1ncco1 (stereo not drawn) )
// result 5.83

// query API: value(readout= pIC50, system= Recombinant human cathepsin A (Homo sapiens (Human)), query= COc1ccc(-c2ccccc2)cc1C(CC(=O)O)c1nccs1 (stereo not drawn) )
// result 5.31

// query API: value(readout= pIC50, system= Recombinant human cathepsin A (Homo sapiens (Human)), query= Cc1cnc(C(CC(=O)O)c2cc(F)cc(-c3cc(F)ccc3F)c2)s1 (stereo not drawn) )
// result 6.19

// query API: value(readout= pIC50, system= Recombinant human cathepsin A (Homo sapiens (Human)), query= Cc1cnc(C(CC(=O)O)c2cc(F)cc(-c3cccc(OC(F)(F)F)c3)c2)s1 (stereo not drawn) )
// result 6.01

Now turn to the next compound.
// query API: value(readout= pIC50, system= Recombinant human cathepsin A (Homo sapiens (Human)), query= CC(=O)c1ccccc1-c1cccc(C(CC(=O)O)c2nnc(C)o2)c1 (stereo not drawn) )
// result 5.76

Data credit: patent US9199947B2
